System: Male Swiss Webster mice
test.description: Mouse acetic acid-induced writhing test (i.c.v. peptides)
Type: in vivo
experimental.setup: as compared with HN, method #1 (ED50)
Peptide text beside a SMILES is read from it.
result.type: Potency ratio (95% CL)

Exercise: Bench note: what Potency ratio (95% CL) did C[C@@H]1NC(=O)[C@H](CCC(N)=O)NC(=O)CNC(=O)[C@H](CCCNC(=N)N)NC1=O [Peptide 5, cyclic(-Gly-Gln-Ala-Arg-)] (cyclo(ARGQ)) show?
Solution: 7.7 (1.3-46.6)

Exercise: Quick one: N=C(N)NCCC[C@H](NC(=O)CNC(=O)[C@H](CCC(N)=O)NC(=O)CN)C(=O)O [Peptide 2, H-Gly-Gln-Gly-Arg-OH] (H-GQGR-OH)
Solution: 2.0 (0.6-6.3)

Exercise: Quick one: C[C@H](NC(=O)[C@H](CCC(N)=O)NC(=O)CN)C(=O)N[C@@H](CCCNC(=N)N)C(=O)O [Peptide 3, H-Gly-Gln-Ala-Arg-OH] (H-GQAR-OH)
Solution: 5.7 (2.0-15.9)

Exercise: Quick one: C[C@H](NC(=O)[C@H](CCC(N)=O)NC(=O)[C@@H](N)CCCNC(=N)N)C(=O)N[C@@H](CCCNC(=N)N)C(=O)O [Peptide 4, H-Arg-Gln-Ala-Arg-OH]
Solution: 4.5 (1.4-14.3)
